Data provenance is patent US20060029603A1.

Target: T1, GST-human NOGO-A56 (human, UniProt P08515 1-218 = GST)
T1 construct: GST-tagged fusion expressed in E. coli BL21 and purified on glutathione-sepharose; coated on ELISA plates or amine-coupled to a CM5 chip; also called hNOGO; recombinant human NOGO
T1 sequence (P08515 1-218, tags or fused parts left off): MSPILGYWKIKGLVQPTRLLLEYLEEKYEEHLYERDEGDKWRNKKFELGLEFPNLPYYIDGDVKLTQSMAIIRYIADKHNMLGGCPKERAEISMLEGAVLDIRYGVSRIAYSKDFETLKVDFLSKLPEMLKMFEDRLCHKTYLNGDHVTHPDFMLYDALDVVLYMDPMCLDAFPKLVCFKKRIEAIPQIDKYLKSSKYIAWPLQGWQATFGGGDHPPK
Test: SPR (Biacore 3000), GST-human NOGO-A56 amine-coupled to CM5, antibody as analyte; mean (SD) of four experiments
Description: The binding kinetics of the anti-NOGO monoclonal antibody (mAb) to recombinantly expressed human NOGO-A (GST-human NOGO-A56) was analysed using the Biacore3000 biosensor. The hNOGO-A chip was prepared as follows: hNOGO (GST-human NOGO-A56) was immobilised to a CM5 chip by primary amine coupling using the Biacore Wizard program designed for targeted immobilisation levels. […]
quantity.measured: koff (s⁻¹)

>  <binder>
H18L16 (antibody, human IgG1, kappa, V domains shown, Humanised 2A10; also called H18L16 FL) VH: QVQLVQSGAEVVKPGASVKLSCKASGYTFTSYWMHWVKQRPGQGLEWIGNINPSNGGTNYNEKFKSKATLTVDKSSSTAYMELSSLRSEDSAVYYCELGQGYWGQGTLVTVSS VL: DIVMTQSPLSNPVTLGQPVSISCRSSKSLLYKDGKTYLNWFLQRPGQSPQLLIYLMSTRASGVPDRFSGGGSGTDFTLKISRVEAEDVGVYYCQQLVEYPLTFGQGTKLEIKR

>  <quantity.measured>
koff

>  <numeric.value>
0.00586

$$$$
>  <binder>
H1L11 (antibody, human IgG1, kappa, V domains shown, Earlier humanised 2A10) VH: QVQLVQSGAEVKKPGASVKVSCKASGYTFTSYWMHWVRQAPGQGLEWMGNINPSNGGTNYNEKFKSRVTMTRDTSTSTVYMELSSLRSEDTAVYYCELGQGYWGQGTLVTVSS VL: DIVITQSPLSLPVTLGQPASISCRSSKSLLYKDGKTYLNWFQQRPGQSPQLLIYLMSTRASGVPDRFSGGGSGTDFTLKISRVEAEDVGVYYCQQLVEYPLTFGQGTKLEIKR

>  <quantity.measured>
koff

>  <numeric.value>
0.0314

$$$$
>  <binder>
HcLc (chimera of 2A10: murine 2A10 VH and VL with human IgG constant regions) (antibody, V domains shown, Human gamma1 mutated constant region and human kappa; also called 2A10 chimeric antibody; the chimera) VH: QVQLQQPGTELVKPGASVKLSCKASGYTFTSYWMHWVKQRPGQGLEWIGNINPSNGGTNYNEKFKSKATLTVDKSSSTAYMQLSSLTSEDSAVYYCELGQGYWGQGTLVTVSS VL: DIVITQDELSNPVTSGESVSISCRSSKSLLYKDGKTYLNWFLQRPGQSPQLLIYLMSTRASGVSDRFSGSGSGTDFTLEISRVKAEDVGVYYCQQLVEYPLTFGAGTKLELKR

>  <quantity.measured>
koff

>  <numeric.value>
0.00378

$$$$
>  <binder>
H6L13 (antibody, human IgG1, kappa, V domains shown, Humanised 2A10; Human gamma1 mutated constant region and human kappa; also called H6L13 FL) VH: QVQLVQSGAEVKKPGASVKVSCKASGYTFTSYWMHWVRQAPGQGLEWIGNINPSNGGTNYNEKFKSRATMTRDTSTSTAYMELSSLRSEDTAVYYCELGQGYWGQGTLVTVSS VL: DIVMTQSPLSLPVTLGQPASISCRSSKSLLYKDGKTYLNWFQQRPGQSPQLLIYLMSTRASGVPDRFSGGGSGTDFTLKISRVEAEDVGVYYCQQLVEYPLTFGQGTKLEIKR

>  <quantity.measured>
koff

>  <numeric.value>
0.0137

$$$$
